Where do these numbers come from? They come from PubChem BioAssay.

- Test system: Human papillomavirus type 1a E7 protein (residues 1-88)
- PROTOCOL SUMMARY: HPV1a E7 small-molecule binders, primary screen, biochemical, small-molecule microarray, residues 1-88, 635 nm (AID 1129)
- PARTICULARS: small-molecule microarray binding, fluorescence 635 nm; higher = more signal
READOUT NAME: composite z-score
Give the figure only, with no unit attached.

Prompt: Supply composite z-score value. Item: C=C(CCCC)C(=O)CC[C@H](OC(C)=O)c1ccc(CO)o1
Completion: 0.228

Prompt: In one line, give reported composite z-score of the entry O=C1O[C@H](c2ccccc2)[C@H](c2ccccc2)N2[C@H]1[C@@H](C(=O)Nc1nc3ccccc3s1)[C@]1(C(=O)Nc3ccc(C#CC4=CCCCC4)cc31)[C@H]2c1ccc(OCCO)cc1 .
Completion: 1.18

Prompt: // Input: CN1C(=O)C2C=CC(C(O)C(C)(C)C)N(Nc3ccccc3)C2C1=O (stereo not drawn) . Output its composite z-score only.
Completion: -0.178

Prompt: Report composite z-score for COC(=O)[C@@]1(Cc2ccc(F)cc2)[C@H]2c3cc(C(=O)N(C)C)n(Cc4ccccn4)c3C[C@H]2CN1C(=O)c1ccccc1
Completion: 1.26

Prompt: Return the recorded composite z-score value; entry: [N-]=[N+]=NCc1ccccc1C[C@]1(C(=O)NCCN2CCOCC2)N=C(c2ccc(OCCCO)cc2)O[C@H]1c1ccccc1CN=[N+]=[N-]
Completion: 1.21
